Test: chemical genetic growth profiling, strain panel (AID 1159580);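 also: tested at 20 µM; growth read once vehicle control cultures reached saturation at 30 °C; 1 = growth at the plate median or of vehicle wells; lower values mean less growth of the strain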
Conditions: S. cerevisiae deletion strains, growth OD, locus YML124C, strain tub3, hits give low values
Hit rate of the full screen: of about 5,500 compounds, about 2,000 (36%) were called active. Roughly 18% stayed inconclusive and do not appear here. Some of the results follow.
Measure: normalized growth
Response field accepts a number only; no unit should be typed.

- Molecule: "CCCCCCC(C)OC(=O)COc1ccc(Cl)cc1Cl (stereo not given)"
  normalized growth: 0.998
- Molecule: "CCCCCCCCCCCCCCCCCC(=O)OC(CC(=O)O)C[N+](C)(C)C (stereo not given)"
  normalized growth: 0.88
- Molecule: "CCOCN(C(=O)CCl)c1c(C)cccc1CC"
  normalized growth: 0.972
- Molecule: "CCC/C=C1\\OC(=O)C2=C1CCC=C2"
  normalized growth: 0.987
- Molecule: "CC(=O)OC(C)C[N+](C)(C)C (stereo not given)"
  normalized growth: 1.01

Exercise: Hello, please tell me recorded normalized growth for this one: CCOC(=O)NC1=C(C2CC2)C(=O)C(NC(=O)OCC)=C(C2CC2)C1=O
Solution: 0.988

Exercise: Quick one: give measured normalized growth for CC(CC(O)C1OC1(C)C)[C@@H]1CCC2(C)C3=CCC4C(C)(C)C(=O)CCC4(C)C3CC[C@@]12C (stereo not given in full)
Solution: 1.03

Exercise: Assign normalized growth to the following record: COC(=O)C1OC(=O)C2OC23C1(C)CCC1C2(C)C(OC(C)=O)CC(OC(C)=O)C(C)(C)C2CC(=O)C13C (stereo not given)
Solution: 0.992

Exercise: Specify measured normalized growth for CC(=O)[C@@]1(O)CCC2C3C[C@H](C)C4=CC(=O)C=CC4(C)[C@@]3(F)[C@@H](O)C[C@@]21C (stereo not given in full) .
Solution: 1.01

Exercise: Give normalized growth for the following molecule: O=C(O[C@@H]1Cc2c(O)cc(O)cc2O[C@@H]1c1cc(O)c(=O)c2c(O)c(O)cc([C@H]3Oc4cc(O)cc(O)c4C[C@H]3OC(=O)c3cc(O)c(O)c(O)c3)c2c1)c1cc(O)c(O)c(O)c1
Solution: 1.02

Exercise: Given the molecule OCC(O)C(O)C(O)C(O)C(O)CO (stereo not given) , write its reported normalized growth.
Solution: 0.988

Exercise: Quote normalized growth reported for CC1CC[C@@]2(OC1)O[C@H]1CC3C4CC[C@@H]5CC(=O)CC[C@]5(C)C4CC[C@]3(C)[C@H]1[C@@H]2C (stereo not given in full) please.
Solution: 0.995

Exercise: # return recorded normalized growth for input C[C@@H]([C@H](O)c1ccccc1)N(C)C
Solution: 1.01

Exercise: Specify measured normalized growth for CC(C1OC(C)(C)C(O)C1O)[C@@H]1CC[C@]2(C)C3=CCC4C(C)(C)C(=O)CC[C@]4(C)C3CC[C@@]12C (stereo not given in full) .
Solution: 1.04

Exercise: Please give the documented normalized growth of C[N+](C)(C)CC(O)CC(=O)O (stereo not given)
Solution: 1

Exercise: Answer with the recorded normalized growth of CC(C)c1c(O)c(-c2cc3c(c(C(C)C)c2O)CCC2C(C)(C)CCC[C@]32C)cc2c1CCC1C(C)(C)CCC[C@]21C (stereo not given in full) only.
Solution: 1.01
